target.or.system: MAP kinase-activated protein kinase 2 (Homo sapiens, UniProt P49137)
Sequence (P49137 whole entry): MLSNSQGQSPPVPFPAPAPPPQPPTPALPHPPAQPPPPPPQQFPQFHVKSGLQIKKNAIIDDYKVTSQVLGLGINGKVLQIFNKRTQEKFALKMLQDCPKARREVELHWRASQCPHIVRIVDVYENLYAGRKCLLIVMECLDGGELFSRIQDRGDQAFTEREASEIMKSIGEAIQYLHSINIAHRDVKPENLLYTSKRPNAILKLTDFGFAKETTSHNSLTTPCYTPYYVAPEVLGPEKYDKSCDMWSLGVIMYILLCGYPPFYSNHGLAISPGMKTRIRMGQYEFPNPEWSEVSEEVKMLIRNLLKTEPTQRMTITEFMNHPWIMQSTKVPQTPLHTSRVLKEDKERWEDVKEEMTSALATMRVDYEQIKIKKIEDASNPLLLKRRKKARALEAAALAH
assay.method.text: Inhibition of GST-tagged MAPKAPK2 assessed as [33P] incorporation after 40 mins by scintillation proximity assay
measurement.label: IC50 (µM)

CC(C)=CCC/C(C)=C/C[C@]12C[C@@H](CC=C(C)C)[C@](C)(CCC=C(C)C)[C@](CC=C(C)C)(C(=O)C(C(=O)c3ccc(O)c(O)c3)=C1O)C2=O = 22
CC(C)=CCC/C(C)=C/C[C@]12C[C@@H](CC=C(C)C)C(C)(C)[C@](C/C=C(\C)CCC=C(C)C)(C(=O)C(C(=O)c3ccc(O)c(O)c3)=C1O)C2=O = 22
